Ref: PubChem BioAssay (NCI)

tested on: MALME-3M melanoma; test: NCI tumour cell line growth inhibition, 48 h; in the data active = GI50 below about 0.43 µM; inactive = the rest
Where a SMILES comes first, the peptide text is derived from it. The star is where a group is joined. Trt = c1ccc(C(c2ccccc2)(c2ccccc2)*)cc1; Cbz = O=C(OCc1ccccc1)*
Give your call using only these classes: yes (1) (active), no (0) (inactive)

NC(=O)c1ccc(N(C(N)=O)c2c(F)cccc2F)nc1-c1ccc(F)cc1F = no (0)
CCCCCCCCCCSC(=N)N = no (0)
O=C(/C=C/c1ccc([N+](=O)[O-])cc1)c1cccc(Nc2nc(Nc3ccccc3)nc(Nc3ccccc3)n2)c1 = no (0)

Q) Could you check what this test reported for `O=C(c1ccc2ccccc2c1)c1c(C(F)(F)F)n([O-])c2ccc(F)cc2[n+]1=O` ?
A) yes (1)

Q) Could you check what this test reported for `Cc1cc2nc3c4ccc(Br)cc4n(CCN(C)C)c3nc2cc1C` ?
A) no (0)

Q) Could you check what this test reported for `Cc1c(Cl)c(C)c(Cc2c(C)c(Cl)c(C)c(Cl)c2O)c(O)c1Cl` ?
A) no (0)

Q) Could you check what this test reported for COC(=O)C(CSC(c1ccccc1)(c1ccccc1)c1ccccc1)NC(=O)C(CC(N)=O)NC(=O)OCc1ccccc1 (stereo not drawn) (Cbz-Asn-Cys(Trt)-OMe; configuration not given here) ?
A) no (0)

Q) Could you check what this test reported for `O=C(C=C=Nc1ccccc1)C(=O)N=C=Cc1ccccc1` ?
A) no (0)

Q) Could you check what this test reported for `COc1cc2c(cc1OCCCOc1ccc(-c3nc4ccc(N5CCN(C)CC5)cc4[nH]3)cc1)N=C[C@@H]1CCCN1C2=O` ?
A) yes (1)

====

system: MALME-3M melanoma; assay: NCI tumour cell line growth inhibition, 48 h
recorded_endpoint: GI50

Past entries and their recorded results:
O=C(Nc1nc2ccccc2s1)c1cc(-c2ccc(F)cc2)n2nc(-c3ccccc3)cc2n1 = 3.74 µM
Cc1cc(Nc2nc(-c3ccncc3)nc3ccccc23)n[nH]1 = > 100 µM
COc1cccc2c1cc1c3c(cc4c(c32)OCO4)C(=O)N1 = 6.5 µM

Q) Query the reported GI50 for MALME-3M melanoma; item: `COc1ccc(-c2nc(C(=O)c3ccccc3)n(CC(=O)c3ccc(Cl)cc3)c2-c2ccc(OC)cc2)cc1`
A) > 100 µM

====

test system: HCC-2998 colon; experiment: NCI tumour cell line growth inhibition, 48 h
recorded_endpoint: TGI

Past entries and their recorded results:
c1ccc(-c2nnc3nn4c(-c5ccccc5)cnnc4c3c2-c2ccccc2)cc1 = > 100 µM
COc1cc(Cn2c(-c3ccccc3)cc3c2-c2oncc2CC3)cc(OC)c1 = > 100 µM

Q) Looking for the measured TGI of S=c1nc[nH]c2c1ncn2C1CCCO1 (stereo unspecified) , can you help?
A) > 100 µM

Q) Looking for the measured TGI of `COc1ccc2c(c1)c1c3n2CCNN=C3CCC1` , can you help?
A) > 100 µM

Q) Looking for the measured TGI of `O=CCCCC(Sc1ccccc1)Sc1ccccc1` , can you help?
A) 84 µM

Q) Looking for the measured TGI of `N#Cc1nc(/C=C/c2cccnc2)oc1N` , can you help?
A) > 100 µM

Q) Looking for the measured TGI of CCCCCCCCCCCCCCCCOCC(O)CO (stereo unspecified) , can you help?
A) 32.2 µM

Q) Looking for the measured TGI of CCOc1cc2c(cc1O)C(N)C[C@@H]1[C@@H]2CC[C@]2(C)[C@@H](O)CC[C@@H]12 (stereo partly specified) , can you help?
A) > 100 µM

Q) Looking for the measured TGI of CC(N1CCOCC1)C(O)(c1ccccc1)c1ccccn1 (stereo unspecified) , can you help?
A) 38.9 µM

Q) Looking for the measured TGI of `O=C(/C=C/c1ccco1)c1ccc(Nc2nc(Nc3ccc(F)cc3)nc(Nc3ccc(F)cc3)n2)cc1` , can you help?
A) > 100 µM

Q) Looking for the measured TGI of CCOC(=O)CCC(NC(=O)c1ccc(Nc2nc3ccccc3nc2C(=O)OCC)cc1)C(=O)OCC (stereo unspecified) , can you help?
A) > 100 µM

====

tested on: 786-0 renal; assay: NCI tumour cell line growth inhibition, 48 h
Where a SMILES comes first, the peptide text is derived from it. The star is where a group is joined. Trt = c1ccc(C(c2ccccc2)(c2ccccc2)*)cc1; Cbz = O=C(OCc1ccccc1)*
Form field: TGI (one value per entry).
// return numeric value only (unit: µM, not printed)

Past entries and their recorded results:
C/C(=N\NS(=O)(=O)c1ccc([N+](=O)[O-])cc1)c1ccc[n+]([O-])n1 = 15.6
COc1cccc(NC2=C(Cl)C(=O)N(Cc3ccc(Cl)cc3)C2=O)c1 = 8.39

Okay, next one:
Q) Looking for the measured TGI of COC(=O)C(CSC(c1ccccc1)(c1ccccc1)c1ccccc1)NC(=O)C(CC(N)=O)NC(=O)OCc1ccccc1 (stereo not drawn) (Cbz-Asn-Cys(Trt)-OMe; configuration not given here) , can you help?
A) 12.6

====

system: CAKI-1 renal; test: NCI tumour cell line growth inhibition, 48 h; in the data active = GI50 below about 0.43 µM; inactive = the rest
Where a SMILES comes first, the peptide text is derived from it. The star is where a group is joined. Trt = c1ccc(C(c2ccccc2)(c2ccccc2)*)cc1; Cbz = O=C(OCc1ccccc1)*
Give your call using only these classes: active, inactive

Observe how each entry below is paired with its result.
O=C(NOCCO)c1cc(CN2OCCCC2=O)c(F)c(F)c1Nc1ccc(I)cc1F = active
COc1ccc(C2=NC(c3ccc(Cl)cc3)C(c3ccc(Cl)cc3)N2C(=O)N2CCNC(=O)C2)c(OC(C)C)c1 (stereo not given) = inactive
O=C(/C=C/c1ccco1)c1ccc(Nc2nc(Nc3ccc(F)cc3)nc(Nc3ccc(F)cc3)n2)cc1 = inactive
C=C(C)[C@@H]1CC[C@]2(CO)CC[C@]3(C)[C@H](CC[C@@H]4[C@@]5(C)CC[C@H](NCO)C(C)(C)[C@@H]5CC[C@]43C)[C@@H]12 = inactive
O=C1/C(=C\c2ccccc2)C2OCC=C3CN4CCC56c7ccccc7N1C5C2C3CC46 (stereo not given) = inactive

Q) Could you check what this test reported for `Cc1c(Cl)c(C)c(Cc2c(C)c(Cl)c(C)c(Cl)c2O)c(O)c1Cl` ?
A) inactive

Q) Could you check what this test reported for COC(=O)C(CSC(c1ccccc1)(c1ccccc1)c1ccccc1)NC(=O)C(CC(N)=O)NC(=O)OCc1ccccc1 (stereo not drawn) (Cbz-Asn-Cys(Trt)-OMe; configuration not given here) ?
A) inactive

Q) Could you check what this test reported for `COc1ccc(C2=Nc3c/c(=C\c4c(O)[nH]c5cc(Cl)ccc45)ccc3=N2)cc1` ?
A) inactive

Q) Could you check what this test reported for `Nc1c(C(=O)Nc2cccc3ccccc23)sc2nc3c(cc12)C(=O)CCC3` ?
A) active

Q) Could you check what this test reported for `Cc1c(Cl)cccc1NC(=O)c1sc2nc3c(cc2c1N)CCCC3` ?
A) inactive

Q) Could you check what this test reported for `Oc1ccc(Cl)cc1/C=N\NC(=S)N/N=C/c1cc(Cl)ccc1O` ?
A) inactive

Q) Could you check what this test reported for C=CC(C)(O)CC/C=C(\CO)C(=O)OC1C(C)OC(O[C@](C)(C=C)CC/C=C(\CO)C(=O)O[C@H]2C[C@@]3(C(=O)OC4OC(CO)C(O)C(O)C4OC4OC(C)C(OC5OC(CO)C(O)C5O)C(OC5OC(CO)C(O)C(O)C5O)C4O)C(CC2(C)C)C2=CCC4[C@@]5(C)CC[C@H](OC6OC(COC7OC(C)C(O)C(O)C7OC7OCC(O)C(O)C7O)C(O)C(O)C6NC(C)=O)C(C)(C)C5CC[C@@]4(C)[C@]2(C)C[C@H]3O)C(O)C1O (stereo not given in full) ?
A) active

Q) Could you check what this test reported for `CCOC(=O)c1c(C)n(Cc2ccccc2)c2c1cc1oc(=O)c(=O)n3cnc2c13` ?
A) inactive

Q) Could you check what this test reported for [CH3][Sn]1([CH3])[O]CC(COc2cc(Cl)c(Cl)cc2Cl)[O]1 (stereo not given) ?
A) inactive

Q) Could you check what this test reported for `Cc1cc(Nc2nc(-c3ccncc3)nc3ccccc23)n[nH]1` ?
A) inactive

====

tested on: HCT-116 colon; test: NCI tumour cell line growth inhibition, 48 h
Form field: TGI (one value per entry).

Past entries and their recorded results:
C=CC[C@H](N=C(SC)SC)C(=O)N1C(=O)N(C)[C@@H](C)[C@H]1c1ccccc1 = > 100 µM
CC(=O)c1sc2[n+](c1C)C(=O)/C(=C\c1ccccc1Cl)S2 = 37.6 µM
Cc1c(O)c(=O)ccn1CCc1ccc(O)cc1 = > 100 µM
COc1ccc(-c2n/c(=C\c3c(O)[nH]c4ccccc34)cc3c2=Nc2ccccc2-3)cc1 = 2.88 µM
COc1ccc(C2=NC(c3ccc(Cl)cc3)C(c3ccc(Cl)cc3)N2C(=O)N2CCNC(=O)C2)c(OC(C)C)c1 (stereo not given) = 3.2 µM
CCOC(=O)C(C(=O)COC(C)(C)C)[C@@H]1C=C[C@H](OC(C)=O)C1 (stereo not given in full) = > 100 µM

Q) Looking for the measured TGI of CCCCCCCCCCCCCCCC1(OC)C[N+](C)(C)CCO1 (stereo not given) , can you help?
A) 3.38 µM

Q) Looking for the measured TGI of `O=C1C(c2c(O)[nH]c3ccc(S(=O)(=O)NCCO)cc23)=Nc2ccccc21` , can you help?
A) 16.2 µM

Q) Looking for the measured TGI of `O=C(/C=C/c1ccco1)c1ccc(Nc2nc(Nc3ccc(F)cc3)nc(Nc3ccc(F)cc3)n2)cc1` , can you help?
A) > 100 µM

Q) Looking for the measured TGI of `O=C(Nc1ccc(Cl)cc1)c1cc(S(=O)(=O)Nc2n[nH]c(=O)n2-c2ccccc2)c(S)cc1Cl` , can you help?
A) > 100 µM

Q) Looking for the measured TGI of `CC(C)(C)[Si](C)(C)OC[C@H](/C=C\CCCC(=O)O)NC1(c2ccccc2)c2ccccc2-c2ccccc21` , can you help?
A) 44.8 µM
